Cited source: patent US8901126B2

Some compounds, each annotated with its measured IC50.
experimental-system: UniProt O76083
assay-info: PDE9-inhibiting activity (SPA, 3H-cGMP degradation)
condition-details: PDE9-inhibiting activity (IC50 values), cGMP 1 μM, 30° C.
Protocol: The PDE9 used in the present experiment was expressed/purified by the method as in, for example, Guipponi et al., and Fisher et., al. (Fisher, D. A., et al., J. Biol. Chem., 273: pp. 15559-15564 (1998), Guipponi, M., et al., Hum. Genet., 103: pp. 386-392 (1998)). (2) Evaluation of PDE9-Inhibiting Activity The PDE9-inhibiting activity was measured by the following method. […]
Counter-ions that a name gives are not always drawn.
measured-property: IC50

>>> meas_value("COCc1cc2c(cc1C(=O)N1CCc3cc(Br)cnc31)[nH]c(=O)c1cnc(C3CCOC3)n12 (single isomer, unassigned) [Example 43(b)]")
"2.8 nM"
>>> meas_value("CCc1cc2c(cc1C(=O)N1CCc3cc(Cl)ccc31)[nH]c(=O)c1nnc(CC3CC3)n12")
"3.3 nM"
>>> meas_value("COCc1cc2c(cc1C(=O)N1Cc3c(F)ccc(F)c3C1)[nH]c(=O)c1cnc(C3CCOC3)n12.Cl (single isomer, unassigned)")
"8.9 nM"
>>> meas_value("O=C(c1cc2[nH]c(=O)c3cnc(C4CCOCC4)n3c2cc1Cl)N1CCc2cc(Br)cnc21")
"0.8 nM"
>>> meas_value("Cc1cc2c(cc1C(=O)N1CC(C)c3cc(Cl)ccc31)[nH]c(=O)c1nnc(C3CCOCC3)n12.Cl (stereo not drawn)")
"2.6 nM"
>>> meas_value("COCc1cc2c(cc1C(=O)N1CCc3cc(OC)ncc31)[nH]c(=O)c1cnc(C3CCOC3)n12 (single isomer, unassigned; (-)) [Example 4(a), dihydrochloride]")
"62 nM"

###

experimental-system: PDE9 (Homo sapiens)
Sequence (O76083 whole entry): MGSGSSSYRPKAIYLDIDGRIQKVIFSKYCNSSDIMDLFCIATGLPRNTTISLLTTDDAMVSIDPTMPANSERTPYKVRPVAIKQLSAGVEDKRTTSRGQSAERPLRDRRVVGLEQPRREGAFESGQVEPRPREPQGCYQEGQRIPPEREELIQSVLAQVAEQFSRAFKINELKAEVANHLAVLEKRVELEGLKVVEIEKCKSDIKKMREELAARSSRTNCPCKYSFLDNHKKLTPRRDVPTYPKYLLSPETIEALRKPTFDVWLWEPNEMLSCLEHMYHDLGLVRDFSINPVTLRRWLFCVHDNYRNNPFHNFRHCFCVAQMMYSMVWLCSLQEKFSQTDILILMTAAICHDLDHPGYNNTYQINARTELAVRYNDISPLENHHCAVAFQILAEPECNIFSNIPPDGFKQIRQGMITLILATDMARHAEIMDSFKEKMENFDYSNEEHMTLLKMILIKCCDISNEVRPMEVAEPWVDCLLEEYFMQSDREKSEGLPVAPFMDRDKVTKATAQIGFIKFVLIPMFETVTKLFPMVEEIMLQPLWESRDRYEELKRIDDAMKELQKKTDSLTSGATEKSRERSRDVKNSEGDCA
assay-info: PDE9-inhibiting activity (SPA, 3H-cGMP degradation)
condition-details: PDE9-inhibiting activity (IC50 values), cGMP 1 μM, 30° C.
Where a name gives a salt, the structure may show the parent alone.
measured-property: IC50 (nM)

>>> meas_value("COC1CC(c2nnc3c(=O)[nH]c4cc(C(=O)N5CCc6cc(Cl)ccc65)c(C)cc4n23)C1.Cl (stereo not drawn)")
2.8
>>> meas_value("COCc1cc2c(cc1C(=O)N1CCc3cc(OC)ncc31)[nH]c(=O)c1cnc(C3CCOC3)n12 (single isomer, unassigned; (+)) [Example 4(b), dihydrochloride]")
11
>>> meas_value("COCc1cc2c(cc1C(=O)N1Cc3c(F)ccc(F)c3C1)[nH]c(=O)c1cnc(C3CCOC3)n12 (single isomer, unassigned)")
26
>>> meas_value("COCc1cc2c(cc1C(=O)N1CCc3cc(Cl)ccc31)[nH]c(=O)c1nnc(C3CCC3)n12.Cl")
13
>>> meas_value("COCc1cc2c(cc1C(=O)N1CCc3cc(Br)cnc31)[nH]c(=O)c1nnc(CC3CC3)n12")
6.1
>>> meas_value("Cc1cc2c(cc1C(=O)N1CCc3cc(Br)cnc31)[nH]c(=O)c1cnc(C3CCOC3)n12 (stereo not drawn) [Example 29]")
15
>>> meas_value("Cc1cc2c(cc1C(=O)N1CCc3cc(F)c(F)cc31)[nH]c(=O)c1cnc(C3CCOC3)n12.Cl (single isomer, unassigned)")
5.8
>>> meas_value("COc1cc2c(cc1C(=O)N1CCc3cc(Br)cnc31)[nH]c(=O)c1cnc(C3CCOCC3)n12")
4.9
>>> meas_value("Cc1cc2c(cc1C(=O)N1CCc3cc(Br)cnc31)[nH]c(=O)c1cnc(C3CCOC3)n12 (single isomer, unassigned) [Example 29(b)]")
5.6

###

Structures can show the parent of a compound that is named as a salt.
measured-property: melting point

>>> meas_value("Cc1cc2c(cc1C(=O)N1CC(C)c3cc(Cl)ccc31)[nH]c(=O)c1nnc(C3CCOCC3)n12.Cl (centres unmarked)")
"231 to 234 °C"
>>> meas_value("Cc1cc2c(cc1C(=O)N1CC(C)c3cc(Cl)ccc31)[nH]c(=O)c1cnc(C3CCOCC3)n12.Cl (centres unmarked)")
"221 to 224 °C"
>>> meas_value("COC1CC(c2nnc3c(=O)[nH]c4cc(C(=O)N5CCc6cc(Br)ccc65)c(C)cc4n23)C1.Cl (centres unmarked)")
"188 to 189 °C"
>>> meas_value("O=C(c1cc2[nH]c(=O)c3cnc(C4CCOCC4)n3c2cc1OCC1CCOC1)N1CCc2cc(Br)cnc21 (centres unmarked)")
"321 to 324 °C (dec.)"
>>> meas_value("CCc1cnc2c(c1)CCN2C(=O)c1cc2[nH]c(=O)c3nnc(CC4CC4)n3c2cc1C (as salt: hydrochloride) [Example 6, dihydrochloride]")
"173 to 175 °C"

###

# IC50 per entry
experimental-system: PDE9 (Homo sapiens)
assay-info: PDE9-inhibiting activity (SPA, 3H-cGMP degradation)
condition-details: PDE9-inhibiting activity (IC50 values), cGMP 1 μM, 30° C.
measured-property: IC50 (nM)

>>> meas_value("CCc1cnc2c(c1)CCN2C(=O)c1cc2[nH]c(=O)c3cnc(C4CCOC4)n3c2cc1COC (single isomer, unassigned) [Example 40(a)]")
77
>>> meas_value("Cc1cc2c(cc1C(=O)N1CCc3cc(Br)cnc31)[nH]c(=O)c1cnc([C@@H]3CCC[C@@H]3O)n12 (racemic)")
62
>>> meas_value("COCc1cc2c(cc1C(=O)N1CCc3cc(C)cnc31)[nH]c(=O)c1cnc(C3CCOC3)n12 (single isomer, unassigned) [Example 25(a)]")
62
